# System: lipoperoxide generation in rat cerebrum
# assayMethodText: Antioxidant activity (inhibition of lipoperoxide generation, method of Stocks et al.)
# Format: biochemical
# conditionSet: 100 μM; rat cerebrum supernatant, 37° C., 15 min, thiobarbituric acid, 532 nm; hydrochloride salt
Use 60% as the dividing line for inhibition ratio, lipoperoxide generation (antioxidant activity), with the line itself on the y side and lower values as n.

Consider the following illustrative entries.
molecule: CCCCCCCCCCc1nc2c(nc1OCCN1CCOCC1)CCCC2 [Compound 585]
categoryLabel: y
--
molecule: CCCCCCCCCCc1nc2c(nc1OCCN1CCN(Cc3ccc(Cl)cc3)CC1)CCCC2 [Compound 590]
categoryLabel: y
--
molecule: CCCCCCCCCCCCCCc1nc2c(nc1OCCN1CCN(Cc3ccc(F)cc3)CC1)CCCC2 [Compound 602]
categoryLabel: y
--
molecule: CCCCCCCCCCCCc1nc2c(nc1OCCN1CCCN(Cc3ccc(F)cc3)CC1)CCCC2 [Compound 598]
categoryLabel: y
--
molecule: O=C(COc1nc2c(nc1Cc1ccccc1)CCCC2)NCCN1CCN(c2ccccc2)CC1 [Compound 373]
categoryLabel: n

API: above_or_equal(metric=inhibition ratio, lipoperoxide generation (antioxidant activity), cutoff=60%) for item CCCCCCCCCCCCCCc1nc2c(nc1OCCN1CCN(Cc3ccccc3)CC1)CCCC2 [Compound 601]
y

Next: CCCCCCCCc1nc2c(nc1OCCN1CCN(CCCC)CC1)CCCC2 [Compound 573]
n

Next: CCCCCCCCCc1nc2c(nc1OCCN1CCCN(Cc3ccc(Cl)cc3)CC1)CCCC2 [Compound 583]
y

Next: CCCCCCCCCCCCc1nc2c(nc1OCCN1CCN(c3ccccc3OC)CC1)CCCC2 [Compound 599]
y

Next: CCc1nc(C)c(C)nc1OC(C(=O)NCCN1CCCN(Cc2ccc(F)cc2)CC1)c1ccccc1 (centres unmarked) [Compound 347]
n

Next: CCc1nc(C)c(C)nc1OC(C(=O)NCCN1CCCN(Cc2ccc(Cl)cc2)CC1)c1ccccc1 (centres unmarked) [Compound 348]
y

Next: CCCCCc1nc2c(nc1OCCN1CCCN(Cc3ccc(F)cc3)CC1)CCCC2 [Compound 562]
y

Next: CCc1nc(C)c(C)nc1OC(C(=O)NCCN1CCN(Cc2ccc([N+](=O)[O-])cc2)CC1)c1ccccc1 (centres unmarked) [Compound 344]
n
